Catalogue of inhibition at 10 µM readings, one per entry.
target: Human TRPV3 (Homo sapiens)
Construct: expressed in transfected cells; host or cells: CHO cells (G-418 selected)
Sequence (Q8NET8 1-790): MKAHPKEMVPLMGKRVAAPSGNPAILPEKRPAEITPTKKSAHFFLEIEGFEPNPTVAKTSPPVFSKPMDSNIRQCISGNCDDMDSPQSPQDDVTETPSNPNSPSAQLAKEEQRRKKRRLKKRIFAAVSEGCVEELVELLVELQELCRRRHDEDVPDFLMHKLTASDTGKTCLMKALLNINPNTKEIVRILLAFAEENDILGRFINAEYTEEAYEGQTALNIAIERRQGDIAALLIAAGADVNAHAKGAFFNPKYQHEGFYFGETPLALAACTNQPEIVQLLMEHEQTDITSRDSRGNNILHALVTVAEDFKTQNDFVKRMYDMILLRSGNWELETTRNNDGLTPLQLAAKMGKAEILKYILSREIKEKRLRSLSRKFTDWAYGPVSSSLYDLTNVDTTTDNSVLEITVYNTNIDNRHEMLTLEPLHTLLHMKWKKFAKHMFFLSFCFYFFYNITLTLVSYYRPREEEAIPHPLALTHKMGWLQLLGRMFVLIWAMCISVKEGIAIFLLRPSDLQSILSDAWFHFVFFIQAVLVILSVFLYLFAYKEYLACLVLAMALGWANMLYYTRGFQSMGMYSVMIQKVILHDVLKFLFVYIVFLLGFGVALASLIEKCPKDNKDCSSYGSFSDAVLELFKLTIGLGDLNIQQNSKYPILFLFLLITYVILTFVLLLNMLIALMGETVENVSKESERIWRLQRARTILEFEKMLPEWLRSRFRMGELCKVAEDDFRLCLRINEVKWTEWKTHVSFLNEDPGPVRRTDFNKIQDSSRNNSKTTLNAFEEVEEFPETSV
test: 45Calcium uptake assay: inhibition of 2-APB induced cellular uptake of radioactive calcium
Type: cell-based
testConditions: 10.0 μM compound; human TRPV3 expressing CHO cells; 2-APB 500 μM; read-out: Percentage inhibition at 10.0 μM
propertyLabel: inhibition at 10 µM

[
  {
    "molecule": "O=C(Cc1cccc2ccccc12)N[C@@H]1CC2(CCC2)Oc2c(Cl)cccc21",
    "propertyLabel": "inhibition at 10 µM",
    "measValue": "27.3%"
  },
  {
    "molecule": "COc1cccc(CCCC(=O)NC2CC3(CCC3)Oc3cc(OCc4ccccc4)ccc32)c1OC1CCCC1 (stereo not shown)",
    "propertyLabel": "inhibition at 10 µM",
    "measValue": "19.6%"
  },
  {
    "molecule": "O=C(CCc1ccc2ccccc2n1)NC1CC2(CCC2)Oc2ccc(Cl)cc21 (stereo not shown)",
    "propertyLabel": "inhibition at 10 µM",
    "measValue": "58.8%"
  },
  {
    "molecule": "O=C(Cc1cccc2ccccc12)NC1CC2(CCC2)Oc2cc(Cl)ccc21 (stereo not shown)",
    "propertyLabel": "inhibition at 10 µM",
    "measValue": "78.8%"
  }
]
